The measurements presented in this section are drawn from patent US11566007B2.

Below, each of the compounds is paired with its reported pIC50 value.
TESTED_ON: NRAS Q61R (Homo sapiens (Human), UniProt P01111+P62937, Q61R)
Sequence (P01111 whole entry Q61R, one chain of several): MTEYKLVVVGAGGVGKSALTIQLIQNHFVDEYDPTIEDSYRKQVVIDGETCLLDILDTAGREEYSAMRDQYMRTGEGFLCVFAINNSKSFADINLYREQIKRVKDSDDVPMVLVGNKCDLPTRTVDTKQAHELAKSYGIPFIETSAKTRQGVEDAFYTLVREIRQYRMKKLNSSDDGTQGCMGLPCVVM
TEST_DESCRIPTION: Ras-Raf (BRAF RBD) disruption / FRET / MOA assay, NRAS Q61R
Format: biochemical
STATED_CONDITIONS: NRAS Q61R; Ras-Raf disruption/FRET/MOA assay; read-out: IC50* NRAS Q61R FRET data
pIC50: −log10 of the molar value.

Completed entries (count: 5):
C=C(F)C(=O)N1CC(N(C)C(=O)N(C)[C@H](C(=O)N[C@H]2Cc3nc(cs3)-c3ccc4c(c3)c(c(-c3cccnc3[C@H](C)OC)n4CC)CC(C)(C)COC(=O)[C@@H]3CCCN(N3)C2=O)C(C)C)C1 (atropisomer, axis not shown) [Example A732]
6.00 to 7.00
C=CC(=O)N1CC[C@H](C(=O)N(C)[C@H](C(=O)N[C@H]2Cc3cc(O)cc(c3)-c3ccc4c(c3)c(c(-c3c(C)cccc3C)n4CC)CC(C)(C)COC(=O)[C@@H]3CCCN(N3)C2=O)C(C)C)C1 [Example A226]
< 5.00
C=CC(=O)N1CC[C@H](C(=O)N(C)[C@H](C(=O)N[C@H]2CC3=NC=C(O3)c3ccc4c(c3)c(c(-c3cccnc3[C@H](C)OC)n4CC)CC(C)(C)COC(=O)[C@@H]3CCCN(N3)C2=O)C(C)C)C1 (atropisomer, axis not shown) [Example A278]
< 5.00
CCn1c(-c2cccnc2[C@H](C)OC)c2c3cc(ccc31)C1=CCCN(C1)C[C@H](NC(=O)[C@@H](COC1CN(C(=O)C#CC(C)(C)N(C)C)C1)C(C)C)C(=O)N1CCC[C@H](N1)C(=O)OCC(C)(C)C2 (atropisomer, axis not shown) [Example A663]
< 5.00
C=CC(=O)N1CCOC2(CCN(C(=O)N(C)[C@H](C(=O)N[C@H]3Cc4nc(cs4)-c4ccc5c(c4)c(c(-c4cccnc4[C@H](C)OC)n5CC)CC(C)(C)COC(=O)[C@@H]4CCCN(N4)C3=O)C(C)C)CC2)C1 (atropisomer, axis not shown) [Example A695]
6.00 to 7.00

Using the record for CO[C@@H](C)c1ncccc1-c1c2c3cc(ccc3n1CC(F)(F)F)-c1cccc(c1)C[C@H](NC(=O)[C@H](C(C)C)N1CC[C@]3(CCN(C(=O)C#CC(C)(C)N(C)C)C3)C1=O)C(=O)N1CCC[C@H](N1)C(=O)OCC(C)(C)C2 (atropisomer, axis not shown) [Example A689] , report its pIC50.
5.00 to 6.00

Using the record for C=CC(=O)N1CCC2(CCN(C(=O)N(C)[C@H](C(=O)N[C@H]3Cc4cccc(c4)-c4ccc5c(c4)c(c(-c4cccnc4[C@H](C)OC)n5CC)CC(C)(C)COC(=O)[C@@H]4CCCN(N4)C3=O)C(C)C)CC2)C1 (atropisomer, axis not shown) [Example A554] , report its pIC50.
6.00 to 7.00

Using the record for C=CC(=O)N1CCC(C(=O)N(C)[C@H](C(=O)N[C@H]2Cc3cc(CF)cc(c3)-c3ccc4c(c3)c(c(-c3cccnc3[C@H](C)OC)n4CC(F)(F)F)CC(C)(C)COC(=O)[C@@H]3CCCN(N3)C2=O)C(C)C)C1 (stereo partly drawn) [Example A659] , report its pIC50.
6.00 to 7.00

Using the record for C=CC(=O)N(C)CC1CN(C(=O)N(C)[C@H](C(=O)N[C@H]2Cc3nc(cs3)-c3ccc4c(c3)c(c(-c3cccnc3[C@H](C)OC)n4CC)CC(C)(C)COC(=O)[C@@H]3CCCN(N3)C2=O)C(C)C)C1 (atropisomer, axis not shown) [Example A368] , report its pIC50.
7.00 to 8.00

Using the record for CCn1c(-c2cccnc2[C@H](C)OC)c2c3cc(ccc31)-c1csc(n1)C[C@H](NC(=O)[C@@H](COC1CN(C(=O)C#CC(C)(C)N(C)C)C1)OC)C(=O)N1CCC[C@H](N1)C(=O)OCC(C)(C)C2 (atropisomer, axis not shown) [Example A660] , report its pIC50.
5.00 to 6.00

Using the record for C=CC(=O)N1CC[C@H](C(=O)N(C)[C@H](C(=O)N[C@H]2Cc3cc(O)cc(c3)-c3ccc4c(c3)c(c(-c3cccnc3)n4C(C)(C)C#N)CC(C)(C)COC(=O)[C@@H]3CCCN(N3)C2=O)C(C)C)C1 [Example A148] , report its pIC50.
6.00 to 7.00

====

TESTED_ON: KRAS G12V (Homo sapiens (Human), UniProt P01116+P62937, G12V)
Sequence (P01116-2 other isoform, or with tags, fused parts or gaps G12V, one chain of several): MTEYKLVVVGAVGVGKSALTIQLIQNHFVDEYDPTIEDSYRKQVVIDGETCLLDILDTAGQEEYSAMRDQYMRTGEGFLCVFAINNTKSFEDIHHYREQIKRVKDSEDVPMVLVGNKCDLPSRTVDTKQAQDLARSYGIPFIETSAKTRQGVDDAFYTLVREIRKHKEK
TEST_DESCRIPTION: Ras-Raf (BRAF RBD) disruption / FRET / MOA assay, KRAS G12V
Assay type: biochemical
STATED_CONDITIONS: read-out: IC50* KRAS G12V FRET data
pIC50: −log10 of the molar value.
EXPERIMENTAL_READOUT: pIC50

Completed entries (count: 3):
C=CC(=O)N1CC(OCC(C(=O)N[C@H]2Cc3cccc(c3)-c3ccc4c(c3)c(c(-c3cccnc3[C@H](C)OC)n4CC)CC(C)(C)COC(=O)[C@@H]3CCCN(N3)C2=O)C(C)C)C1 (mixture of isomers) [Example A484]
< 5.00
CC#CC(=O)N1CC[C@]2(CCN([C@H](C(=O)N[C@H]3Cc4cccc(c4)-c4ccc5c(c4)c(c(-c4cccnc4[C@H](C)OC)n5CC)CC(C)(C)COC(=O)[C@@H]4CCCN(N4)C3=O)C(C)C)C2=O)C1 (atropisomer, axis not shown) [Example A412]
5.00 to 6.00
CCn1c(-c2cccnc2[C@H](C)OC)c2c3cc(ccc31)-c1cc(O)cc(c1)C[C@H](NC(=O)[C@H](C(C)C)N1CC[C@@]3(CCN(C(=O)/C=C/CN(C)C)C3)C1=O)C(=O)N1CCC[C@H](N1)C(=O)OCC(C)(C)C2 (atropisomer, axis not shown) [Example A269]
6.00 to 7.00

Continue with the compound presented below.
Using the record for C=CC(=O)N(C)[C@@H]1CCCN(C(=O)N(C)[C@H](C(=O)N[C@H]2Cc3nc(cs3)-c3ccc4c(c3)c(c(-c3cccnc3[C@H](C)OC)n4CC)CC(C)(C)COC(=O)[C@@H]3CCCN(N3)C2=O)C(C)C)C1 (atropisomer, axis not shown) [Example A382] , report its pIC50.
6.00 to 7.00

====

TESTED_ON: KRAS Q61H (Homo sapiens (Human), UniProt P01116+P62937, Q61H)
Sequence (P01116-2 other isoform, or with tags, fused parts or gaps Q61H): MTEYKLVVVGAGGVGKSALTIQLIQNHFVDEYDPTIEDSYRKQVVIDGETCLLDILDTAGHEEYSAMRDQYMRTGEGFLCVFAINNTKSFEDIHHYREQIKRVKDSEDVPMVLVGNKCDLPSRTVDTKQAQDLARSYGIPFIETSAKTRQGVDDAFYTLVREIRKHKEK
Sequence (P62937 whole entry): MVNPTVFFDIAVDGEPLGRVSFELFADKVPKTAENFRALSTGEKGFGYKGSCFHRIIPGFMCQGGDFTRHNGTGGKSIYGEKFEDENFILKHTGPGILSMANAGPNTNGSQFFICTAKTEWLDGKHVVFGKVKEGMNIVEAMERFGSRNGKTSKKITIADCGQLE
TEST_DESCRIPTION: Ras-Raf (BRAF RBD) disruption / FRET / MOA assay, KRAS Q61H
Assay type: biochemical
STATED_CONDITIONS: Ras-Raf disruption/FRET/MOA assay; class symbols; read-out: KRAS Q61H FRET data IC50
EXPERIMENTAL_READOUT: IC50

Completed entries (count: 3):
C=CC(=O)N1CC(N2CCN(C(=O)N(C)[C@H](C(=O)N[C@H]3Cc4nc(cs4)-c4ccc5c(c4)c(c(-c4cccnc4[C@H](C)OC)n5CC)CC(C)(C)COC(=O)[C@@H]4CCCN(N4)C3=O)C(C)C)CC2)C1 (atropisomer, axis not shown)
0.01 to 0.1 µM
CO[C@@H](COC1CN(C(=O)C#CC(C)(C)N(C)C)C1)C(=O)N[C@H]1Cc2coc(n2)-c2ccc3c(c2)c(c(-c2cccnc2[C@H](C)OC)n3CC(F)(F)F)CC(C)(C)COC(=O)[C@@H]2CCCN(N2)C1=O (atropisomer, axis not shown)
1 to 10 µM
C=CC(=O)N1CCN(C(=O)N(C)[C@H](C(=O)N[C@H]2Cc3nc(cs3)-c3ccc4c(c3)c(c(-c3cccnc3[C@H](C)OC)n4CC)CC(C)(C)COC(=O)[C@@H]3CCCN(N3)C2=O)C(C)C)[C@H]2CC[C@H]21 (atropisomer, axis not shown)
0.01 to 0.1 µM

Continue with the molecule presented below.
Using the record for C=CC(=O)N(C)[C@H]1C[C@@H](N(C)C(=O)N(C)[C@H](C(=O)N[C@H]2Cc3nc(cs3)-c3ccc4c(c3)c(c(-c3cccnc3[C@H](C)OC)n4CC)CC(C)(C)COC(=O)[C@@H]3CCCN(N3)C2=O)C(C)C)C1 (atropisomer, axis not shown) , report its IC50.
0.01 to 0.1 µM

====

TESTED_ON: KRAS G12S (Homo sapiens (Human), UniProt P01116+P62937, G12S)
Sequence (P01116-2 other isoform, or with tags, fused parts or gaps G12S): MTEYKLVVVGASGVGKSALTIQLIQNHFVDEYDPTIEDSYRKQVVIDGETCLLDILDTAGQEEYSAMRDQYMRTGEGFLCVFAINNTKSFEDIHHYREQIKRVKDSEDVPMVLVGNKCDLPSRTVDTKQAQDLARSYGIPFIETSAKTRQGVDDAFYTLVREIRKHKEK
Sequence (P62937 whole entry): as the sequence (P62937 whole entry) above
TEST_DESCRIPTION: Ras-Raf (BRAF RBD) disruption / FRET / MOA assay, KRAS G12S
Type: biochemical
STATED_CONDITIONS: Ras-Raf disruption/FRET/MOA assay; class symbols; read-out: KRAS G12S FRET data IC50
EXPERIMENTAL_READOUT: IC50

CCn1c(-c2cccnc2[C@H](C)OC)c2c3cc(ccc31)-c1cc(CF)cc(c1)C[C@H](NC(=O)[C@H](C(C)C)N1CC[C@]3(CCN(C(=O)C#CC(C)(C)N(C)C)C3)C1=O)C(=O)N1CCC[C@H](N1)C(=O)OCC(C)(C)C2 (atropisomer, axis not shown)
1 to 10 µM

Continue with the molecule presented below.
Using the record for C=CC(=O)N1CC[C@H](C(=O)N(C)[C@H](C(=O)N[C@H]2Cc3cccc(c3)-c3ccc4c(c3)c(c(-c3cc5c(nc3[C@H](C)OC)CCN(C)C5)n4CC)CC(C)(C)COC(=O)[C@@H]3CCCN(N3)C2=O)C(C)C)C1 (atropisomer, axis not shown) , report its IC50.
1 to 10 µM
